# measurement_protocol: yeast display, Sf9 membrane polyspecificity reagent, FACS + sequencing; frameworks hold sequencing errors
metric: polyreactivity (PSR sort gate)

// below: answered sequences
- sequence_record: "QVQLVESGGGLVQAGGSLRLSCAASGSTFTYYSMGWYRQAPGKERELVDAITGRGGRTYYADSVKGRFTISRDNAKNTVYLQMNSLKPEDTAVYYCARYQSSDTYWTKYDYWGQGTQVTVSS"
  result: "high polyreactivity"
- sequence_record: "QLQLVESGGGLVQAGGSLRLSCAASGLTFYWYAMGWYRQAPGKERELVAAITSTGSTYYADSVKGRFTISRDNAKNTVYLQMNILKPEDTAVYYCNADFPANWGWDYDYWGQGTQVTVSS"
  result: "low polyreactivity"
- sequence_record: "QFKLVESGGGLVQAGGSLRLSCAASGVIIQGNAMGWYRQAPGNEMELVAAISSSVSTYYADSVKGRFTISRDNAKNTVYLQMTSLKPEDTAVYYCNAGFPLSLWLGDYWGHGTQVTVSS"
  result: "low polyreactivity"
- sequence_record: "QVQLVESGGGLVQAGGSLRLSSAASGSIFRIYAMGWYRQAPGKERELVAAMSSGGSTYYADSVKGRFTISRDNAKNTVYLQMNSLKPEDTAVYYCAAYPEYVSGAWYDYWGQGTQVTLSS"
  result: "low polyreactivity"
- sequence_record: "QVQLVESGGGLVQAGGSLRLSCAASGSIFRRYAMGWYRHAPGKEREFVAAITRSGGGTYYADSVKGRFTISRDNAKNTVSLQMNSLKPEDTAVYFCAKDVFVQRSRYPEGDYWGQGTQVTVSS"
  result: "high polyreactivity"

So for QFQLVESGGGLVQAGGSLRLSCAASGRIFVRYAMGWYSQAPGKERQLVAAISKSGGSTYYADSVKGRYTISRDNAKNTVYLQMNSLNPEDTAVDYCAADYTGFFPDGSDVDFDYWGQGTQVTVSS , the logged polyreactivity (PSR sort gate) turned out to be low polyreactivity

The reported measurements were obtained from the nanobody polyreactivity screen of Harvey et al. (2022).
